Each record here notes measured IC50.
System: 12R8-3
procedure summary: Cell growth inhibition assay (Cell Titer Glo, 3 days)
Format: cell-based
experimental setup: Homo sapiens; 12R8-3, melanoma, Compound A resistant clone; BRAF_V600E, KRAS WT; mean ± std; read-out: IC50 Single Agent

Cn1ncc(Cl)c1-c1cc(C(=O)N[C@H](CN)Cc2ccc(F)c(F)c2)oc1Cl = > 10 µM

We now examine a further compound.
Recorded IC50 for CC(C)(C)c1nc(-c2cccc(NS(=O)(=O)c3c(F)cccc3F)c2F)c(-c2ccnc(N)n2)s1 on 12R8-3 was > 10 µM

###

System: A375PF11
procedure summary: Cell growth inhibition assay (Cell Titer Glo, 3 days)
Format: cell-based
experimental setup: Homo sapiens, A375P-F11, melanoma, BRAF_V600E, KRAS WT, mean ± std, read-out: IC50 Single Agent
measured parameter: pIC50
In textbook form, pIC50 equals minus log to base ten of the concentration in mol/L.

Notebook: CC(C)(C)c1nc(-c2cccc(NS(=O)(=O)c3c(F)cccc3F)c2F)c(-c2ccnc(N)n2)s1 , pIC50 read as 7.20

###

Tested on: NCI-H508
procedure summary: Cell growth inhibition assay (Cell Titer Glo, 3 days)
Type: cell-based
experimental setup: Homo sapiens, NCl-H508, colon, BRAF G596R, KRAS WT, PIK3CA E545K, mean ± std, read-out: IC50 Single Agent
measured parameter: pIC50
In textbook form, pIC50 equals minus log to base ten of the concentration in mol/L.

Notebook: Cn1ncc(Cl)c1-c1cc(C(=O)N[C@H](CN)Cc2ccc(F)c(F)c2)oc1Cl , pIC50 read as 6.63

###

System: 12R5-3
procedure summary: Cell growth inhibition assay (Cell Titer Glo, 3 days)
Type: cell-based
experimental setup: Homo sapiens; 12R5-3, melanoma, Compound A resistant clone; BRAF_V600E, KRAS WT; mean ± std; read-out: IC50 Single Agent
measured parameter: IC50

Cn1ncc(Cl)c1-c1cc(C(=O)N[C@H](CN)Cc2ccc(F)c(F)c2)oc1Cl = > 10 µM

We now examine a further compound.
Notebook: CC(C)(C)c1nc(-c2cccc(NS(=O)(=O)c3c(F)cccc3F)c2F)c(-c2ccnc(N)n2)s1 , IC50 read as > 10 µM

###

Test system: seven Compound A resistant clones derived from the A375PF11 melanoma cell line
procedure summary: Cell growth inhibition assay (Cell Titer Glo, 3 days), summary over clones
Format: cell-based
experimental setup: Homo sapiens, A375P-F11; seven Compound A resistant clones (12R8-3, 12R8-1, 12R5-3, 16R5-2, 16R6-3, 16R6-4, 12R5-1); single agent
pIC50: −log10 of the molar value.
measured parameter: pIC50

Notebook: Cn1ncc(Cl)c1-c1cc(C(=O)N[C@H](CN)Cc2ccc(F)c(F)c2)oc1Cl [Compound B] , pIC50 read as ≤ 5.15

###

Test system: HT29
procedure summary: Cell growth inhibition assay (Cell Titer Glo, 3 days)
Assay type: cell-based
experimental setup: Homo sapiens, HT-29; HT29, colon; BRAF V600E, KRAS WT, PIK3CA P449T; mean ± std; read-out: IC50 Single Agent
Each record here notes measured IC50.
State the answer as a number, implicitly in µM.

Cn1ncc(Cl)c1-c1cc(C(=O)N[C@H](CN)Cc2ccc(F)c(F)c2)oc1Cl [Compound B] = 0.503

Notebook: CC(C)(C)c1nc(-c2cccc(NS(=O)(=O)c3c(F)cccc3F)c2F)c(-c2ccnc(N)n2)s1 [Compound A] , IC50 read as 0.028
